assayed system: T1, Mouse-TrKA protein (mouse, UniProt Q3UFB7 34-420, limits assumed)
T1 construct: also called Mouse-TrKA receptor
T1 sequence (Q3UFB7 34-420 limits assumed): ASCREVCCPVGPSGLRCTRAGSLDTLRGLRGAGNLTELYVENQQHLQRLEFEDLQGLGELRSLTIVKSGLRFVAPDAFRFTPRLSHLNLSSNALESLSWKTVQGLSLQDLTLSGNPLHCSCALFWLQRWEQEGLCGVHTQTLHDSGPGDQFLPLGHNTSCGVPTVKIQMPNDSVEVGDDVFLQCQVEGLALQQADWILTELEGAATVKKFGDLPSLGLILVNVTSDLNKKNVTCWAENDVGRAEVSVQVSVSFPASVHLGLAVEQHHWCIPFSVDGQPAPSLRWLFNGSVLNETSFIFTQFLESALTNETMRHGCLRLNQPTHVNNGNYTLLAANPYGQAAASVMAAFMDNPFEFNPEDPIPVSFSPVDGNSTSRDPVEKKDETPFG
test name: ELISA, hybridoma supernatant on Mouse-TrKA
Excerpt: The binding of monoclonal antibodies produced by the supernatant of each positive clone to the Mouse-TrKA receptor was detected by ELISA method, and the human-mouse cross reaction of positive clones producing monoclonal antibodies was detected. In FIG. 3, the OD₄₅₀ value reflects the strength of the binding of the antibody to the protein. The larger the reading, the stronger the binding of the antibody to the protein. […]
experimental readout: OD450

Input line: Would you kindly share the measured OD450 for mouse monoclonal antibody produced by hybridoma clone 27H3 (antibody, V domains shown, also called 27H3 (positive clone supernatant)) VH: QVQLQQSGAELMKPGASVKISCKTTGYRFSSYWIEWVKQRPGHGLEWLGEILPGRGIINYNENFRGKATFTADTSSNTAYVQLSSLTSEDSAVYFCARTDPPYFGVWGAGTTVTVSS VL: QAVVTQESALTTSPGETVTLTCRSSTGAVTISNYANWVQEKPDHLFTGLIGGTNNRPPGVPARFSGSLIGDKAALTITGAQTEDEAIYFCVLWYSNHWVFGGGTKLTVL ?
Output line: ~3.5 OD450
